Tested on: DU-145 prostate
assay: NCI tumour cell line growth inhibition, 48 h
readout-name: TGI

compound: COc1ccc(/C=C2\CS(=O)(=O)C/C(=C\c3ccc(OC)cc3)C2=O)cc1
readout-name: TGI
value-measured: 5.41 µM
//
compound: Cc1cc(O)c(C=NC(=S)C(N)=S)c(=O)o1
readout-name: TGI
value-measured: > 100 µM
//
compound: CN1CN(c2ccccc2)C2(CCN(Cc3nc4ccccc4s3)CC2)C1=O
readout-name: TGI
value-measured: 38.3 µM
//
compound: CCN(CC)CCn1c(N)c(-c2nc3ccccc3n2C)c2nc(C#N)c(C#N)nc21
readout-name: TGI
value-measured: 13 µM

**Query** Under DU-145 prostate: report TGI of C=CCCC(=O)N1CCC(C(=O)OCC)C1=O (configuration not stated) .
**Result** > 100 µM

**Query** # lookup: DU-145 prostate TGI, key = `CCP(=S)(CC)CCl`
**Result** > 100 µM

**Query** # lookup: DU-145 prostate TGI, key = `Nc1nc2cc(-c3ccc4ncc(C(=O)N5CCOCC5)n4c3)ccc2o1`
**Result** > 100 µM

**Query** # lookup: DU-145 prostate TGI, key = CC(=O)NC(C)(C)C1CC=C(C)/C(=N\O)C1 (configuration not stated)
**Result** > 100 µM

**Query** Send back DU-145 prostate TGI of `Cn1cc(C2=C(c3cn(C)c4cc(C(=O)O)ccc34)C(=O)NC2=O)c2ccccc21` only.
**Result** > 25 µM

====

System: HCT-15 colon
assay: NCI tumour cell line growth inhibition, 48 h
readout-name: TGI

Example results:
compound: CC(C)(C)C1=NC(=S)SC2=NC(=O)C3(NN21)c1ccccc1-c1ccccc13
value-measured: > 10 µM

compound: O=CCOCc1cc2c(cc1Br)OCO2
value-measured: 46.1 µM

compound: N=C1N(c2ccccc2)C(=S)C(=Nc2ccccc2)N1c1ccccc1
value-measured: 21.9 µM

compound: O=C(C(Br)C(Br)c1ccccc1)C(Br)C(Br)c1ccccc1 (stereo not given)
value-measured: 0.849 µM

compound: Cc1ccc(N=NC(=O)NNc2ccc(C)c([N+](=O)[O-])c2)cc1[N+](=O)[O-]
value-measured: > 100 µM

**Query** Please look at this compound and report its TGI: CC1=C(C#N)C2C(=C(C)N1)C(N)=Nc1ccccc12 (stereo not given)
**Result** > 100 µM

**Query** // fetch TGI given entry `C[C@H](CCC(=O)O)[C@H]1CC[C@H]2[C@@H]3[C@@H](O)C[C@@H]4C[C@H](O)CC[C@]4(C)[C@H]3CC[C@]12C`
**Result** > 100 µM

**Query** Please give measured TGI of the following entry: `COC(=O)c1cc2cc(-c3ccc(OC)cc3)cnc2[nH]1`
**Result** > 100 µM

**Query** Consider the compound CC(=O)/C=C/CCC(=O)/C=C/C(=O)OC(CCC(=O)/C=C/C(=O)O)CC(C)=O (stereo not given) and give its recorded TGI.
**Result** > 100 µM

**Query** Give the reported TGI for this compound. O=CC(NC(=O)N(CCCl)N=O)C(O)C(O)C(O)CO (stereo not given)
**Result** > 1250 µM

====

System: EKVX NSCLC
assay: NCI tumour cell line growth inhibition, 48 h
TGI values for the molecules below.

**Query** Read the entry COc1cc(Br)c(CC2NCCc3cc(OC)c(OC)cc32)cc1OC (stereo not given) and write its reported TGI.
**Result** > 100 µM

**Query** Identify measured TGI associated with `COc1ccc(-c2nc3ccc([N+](=O)[O-])cc3c(=O)[nH]2)cc1`
**Result** > 100 µM
